Tested on: rabbit vWF A1 domain (SEQ ID NO 6)
Sequence (as listed by the source): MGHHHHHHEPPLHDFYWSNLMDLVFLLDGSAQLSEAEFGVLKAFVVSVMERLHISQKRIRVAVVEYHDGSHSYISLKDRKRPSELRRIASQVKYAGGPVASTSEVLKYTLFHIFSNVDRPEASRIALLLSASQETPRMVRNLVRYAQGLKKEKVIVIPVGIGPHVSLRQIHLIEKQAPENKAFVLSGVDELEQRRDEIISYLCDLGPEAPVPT
Test: 3-point dot blot screen, rabbit vWF A1 domain
Type: binding
Conditions: rRfY aptamers; 100 nM rabbit vWF A1 domain; ratio of fraction bound with target to without
Oligonucleotides are written 5' to 3', each unit as a sugar letter and its base; * is a phosphorothioate linkage, no mark a phosphodiester; rarer units and linkages stand in square brackets, end groups in braces. Plain capitals give the bases only. r = 2'-OH (RNA); f = 2'-fluoro

| molecule | Screen- Rabbit/No Protein |
| --- | --- |
| AMX201.H1: rRfY aptamer clone (nucleic acid) rGrGrArGfCrGfCrAfCfUfCrArGfCfCrAfCfUfUfUrAfCrGrGfUrGrArArArGfUfCfUfCfUfCrGrGrGrGfUfUfCfCrGrArGfUfUrAfCrGrGfUrGfCrGfUfUfUfCrGrAfCfCfUfCfUfCfUrGfCfUrArGfC | 2.46 |
| AMX201.G9: rRfY aptamer clone (nucleic acid) rGrGrArGfCrGfCrAfCfUfCrArGfCfCrAfCfUrArAfCrGrGfCfUrGrAfUfCfUfCrArGrGrAfCfUrArArAfUrArGfUfCrArAfCrArArGrGrAfUrGfCrGfUfUfUfCrGrAfCfCfUfCfUfCfUrGfCfUrArGfC | 2.11 |
| AMX201.B3: rRfY aptamer clone (nucleic acid) rGrGrArGfCrGfCrAfCfUfCrArGfCfCrAfCrArGrArGfCfCfCfUrGrArGfUrGfUrAfUrGrAfUfCrGfCfCrGrArGrAfUfCfUrAfUfCrGrAfUrGfCfUfUfUfUfUfCrGrAfCfCfUfCfUfCfUrGfCfUrArGfC | 1.64 |
